system: CD4+ T cells; test: Exogenous autologous healthy donor restimulation assay, TNFα and IFNγ production by CD4+ T cells; format: cell-based, human; details: maximum CD4+ T-cell response (TNFα and IFNγ), donor independent; peptide pool 10 μg/mL, healthy donors
Rule: Fold change (CD4+) vs. DMSO of 7 or more gives fulfilled; anything lower gives not fulfilled.

These recorded examples may help you get a feel for the data.
Test whether the sequence WLLRTWERADSGL [AS123, alternative splicing, PCNX3] records Fold change (CD4+) vs. DMSO of 7 or higher.
not fulfilled

Test whether the sequence NRVTALTQN [FUS35, gene fusion TMED3-> KIAA1024] records Fold change (CD4+) vs. DMSO of 7 or higher.
not fulfilled

Test whether the sequence VHLDFSSAEMGFPHAAQANVELLGSSDLLT [AS116, alternative splicing, FCRL5] records Fold change (CD4+) vs. DMSO of 7 or higher.
not fulfilled

Test whether the sequence GKSTPPRKEIFDDASP [FUS11, gene fusion GAB1-> SMARCA5] records Fold change (CD4+) vs. DMSO of 7 or higher.
fulfilled

***
Test whether the sequence MDLTAIYETMQIFVKT [FUS30, gene fusion ZFP36-> UBC] records Fold change (CD4+) vs. DMSO of 7 or higher.
fulfilled

Test whether the sequence DPTTKRSRLTPKLHFLVERNPRWSQEQRKYL [AS92, alternative splicing, MSI2] records Fold change (CD4+) vs. DMSO of 7 or higher.
fulfilled

* * *

system: CD4+ T cells; assay: Exogenous autologous healthy donor restimulation assay, TNFα and IFNγ production by CD4+ T cells; format: cell-based, human; design: unit not given here; conditions: maximum CD4+ T-cell response, donor independent; peptide pool 10 μg/mL, healthy donors
VALUE TYPE: Frequency (TNFα+ IFNγ+ CD4 T cells)
The answer should be a number; do not append a unit.

Solved cases (2 shown):
Give the measured Frequency (TNFα+ IFNγ+ CD4 T cells) of LQAILQPGNFILVNEI [AS5, alternative splicing, C3orf79] .
0.14

Give the measured Frequency (TNFα+ IFNγ+ CD4 T cells) of LRYLIHLRKWKIK [FUS55, gene fusion FAM214A-> ARPP19] .
0.056

Now for another entry.
Give the measured Frequency (TNFα+ IFNγ+ CD4 T cells) of KRYGCVFQVSIRHLSFPVTDILP [AS77, alternative splicing, TRAF3] .
0.046

* * *

Property: Fold change (CD4+) vs. DMSO; scope: individual substances
test system: CD4+ T cells; test: Exogenous autologous healthy donor restimulation assay, TNFα and IFNγ production by CD4+ T cells; type: cell-based, human; conditions: maximum CD4+ T-cell response (TNFα and IFNγ), donor independent; peptide pool 10 μg/mL, healthy donors
The answer should be a number; do not append a unit.

Missing value: Fold change (CD4+) vs. DMSO, CD4+ T cells, entry GRAGQGGGMISVSQEFIK [FUS7, gene fusion FAM98A-> LOC105374454] . Fill in?
17.18

Missing value: Fold change (CD4+) vs. DMSO, CD4+ T cells, entry FSQNMNTKMIRGTERKQQYYGLQILE [AS134, alternative splicing, XPO1] . Fill in?
1.429

Missing value: Fold change (CD4+) vs. DMSO, CD4+ T cells, entry FSMRPAFGETALGCKKW [AS19, alternative splicing, GABRR2] . Fill in?
23.16

Missing value: Fold change (CD4+) vs. DMSO, CD4+ T cells, entry QRDRDSIKVGLKIYRLRNGLKGL [AS76, alternative splicing, TLE4] . Fill in?
224.35

Missing value: Fold change (CD4+) vs. DMSO, CD4+ T cells, entry FU524 (SGLEAIQRGYETFYSE) . Fill in?
3.13

Provenance of the data: patent US20210261636A1
